Test system: Staphylococcus aureus
assaySummary: Antibacterial activity against methicillin resistant Staphylococcus aureus SR3637
Type: functional
quantityKind: MIC

Field: example entries. Status: answers known.
| compound | resultValue |
| --- | --- |
| CC(=O)N[C@H]1CCN[C@H]([C@@H](O[C@@H]2O[C@H](CN)[C@@H](O)[C@H]2O)[C@H]2O[C@@H](n3ccc(=O)[nH]c3=O)[C@H](O)[C@@H]2O)C1 | > 64 µg/mL |
| CCCCCCCCCCCCCCCC(=O)NC[C@@H]1CC[C@H]2C(C(=O)N1CCCNC(=N)N)[C@H]([C@H]1O[C@@H](n3ccc(=O)[nH]c3=O)[C@H](O)[C@@H]1O)ON2CCCN (single isomer, unassigned) | 16 µg/mL |
| CCCCCCCCCCCCCCCCC[C@H]1CN[C@@H]([C@H](O[C@@H]2O[C@H](CN)[C@@H](O)[C@H]2O)[C@H]2O[C@@H](n3ccc(=O)[nH]c3=O)[C@H](O)[C@@H]2O)C(=O)N(C)[C@@H]1C(=O)O | 8 µg/mL |
| CCCCCCCCCCCCCCCCC[C@H]1CN(C)[C@@H]([C@H](O[C@@H]2O[C@H](CN)[C@@H](O)[C@H]2O)[C@H]2O[C@@H](n3ccc(=O)[nH]c3=O)[C@H](O)[C@@H]2O)C(=O)N(C)[C@@H]1C(=O)O | 8 µg/mL |
| CCCCCCCCCCCCCCCC(=O)N[C@H]1CCN[C@H]([C@@H](O[C@@H]2O[C@H](CN)[C@@H](O)[C@H]2O)[C@H]2O[C@@H](n3ccc(=O)[nH]c3=O)[C@H](O)[C@@H]2O)C1 | 16 µg/mL |

Qu. So what's the measured MIC for this one? CCCCCCCCCCCCCCCCC[C@@H]1CN[C@@H]([C@H](O[C@@H]2O[C@H](CN)[C@@H](O)[C@H]2O)[C@H]2O[C@@H](n3ccc(=O)[nH]c3=O)[C@H](O)[C@@H]2O)C(=O)N(C)[C@@H]1C(=O)O
Ans. 8 µg/mL

Qu. And CC(=O)N[C@@H]1CCN[C@@H]([C@@H](O[C@@H]2O[C@H](CN)[C@@H](O)[C@H]2O)[C@H]2O[C@@H](n3ccc(=O)[nH]c3=O)[C@H](O)[C@@H]2O)C1 ?
Ans. > 64 µg/mL

Qu. And CCCCCCCCCCCCCCCC(=O)N[C@@H]1CCN[C@@H]([C@@H](O[C@@H]2O[C@H](CN)[C@@H](O)[C@H]2O)[C@H]2O[C@@H](n3ccc(=O)[nH]c3=O)[C@H](O)[C@@H]2O)C1 ?
Ans. 32 µg/mL

Qu. And CC(=O)N[C@@H]1CCN[C@H]([C@H](O[C@@H]2O[C@H](CN)[C@@H](O)[C@H]2O)[C@H]2O[C@@H](n3ccc(=O)[nH]c3=O)[C@H](O)[C@@H]2O)C1 ?
Ans. > 64 µg/mL

Qu. And CCCCCCCCCCCCCCC[C@H](NC(=O)[C@@H](N)CCCNC(=N)N)C(=O)NC[C@@H]1CC2[C@H](C(=O)N1)[C@@H]([C@H]1O[C@@H](n3ccc(=O)[nH]c3=O)[C@H](O)[C@@H]1O)ON2CCCN (single isomer, unassigned) ?
Ans. 32 µg/mL

Qu. And CC(=O)N[C@H]1CCN[C@H]([C@H](O[C@@H]2O[C@H](CN)[C@@H](O)[C@H]2O)[C@H]2O[C@@H](n3ccc(=O)[nH]c3=O)[C@H](O)[C@@H]2O)C1 ?
Ans. > 64 µg/mL

Qu. And CCCCCCCCCCCCCCCC(=O)NC[C@@H]1C[C@H]2[C@@H](C(=O)N1CCCNC(=N)N)[C@H]([C@H]1O[C@@H](n3ccc(=O)[nH]c3=O)[C@H](O)[C@@H]1O)ON2CCCN ?
Ans. 8 µg/mL
